Taken from PubChem BioAssay AID686978.

# assay method text: qHTS for Inhibitors of human tyrosyl-DNA phosphodiesterase 1 (TDP1): qHTS in cells in absence of CPT; note: nearly all actives have a fitted effect of over 55% in size
# condition details: DT40 Tdp1-/- hTDP1 cells, no CPT, ATP luminescence, 48 h
Among all 420,000 compounds or so, about 64,000 (15%) were called active. About 27% were inconclusive and are not listed. Calls come from the whole dose curve; as a rule, active = well fitted inhibition curve with a large enough effect; inconclusive = small, poorly fitted or top-dose-only effect; inactive = flat fitted curve, though single readings scatter. A selection follows.
Classes used: T (active), F (inactive)

>>> group_label("OCCNc1ncnc2oc(-c3ccco3)c(-c3ccco3)c12")
"T"
>>> group_label("CC1(C)Cc2ccccc2-c2[nH]c(=S)[nH]c(=O)c21")
"F"
>>> group_label("CC(C)(C)c1ccc(C(=O)NCC(c2ccco2)S(=O)(=O)c2ccc(F)cc2)cc1 (stereo not given)")
"T"
>>> group_label("CN(C)C(CNC(=O)c1ccc(S(=O)(=O)NCc2ccco2)cc1)c1ccccc1 (stereo not given)")
"F"
>>> group_label("CCCc1nc2sc3c(c2c(=O)n1NC(=O)CCCl)CCCC3")
"T"
>>> group_label("COCCNc1ncnc2c1ncn2[C@H]1CN(Cc2ccc(OC)cc2)C[C@@H](CO)O1")
"F"
>>> group_label("O=C(CNC(=O)N1CC(=O)Nc2ccccc21)Nc1ccc(Br)cc1F")
"F"
>>> group_label("FC(F)Oc1ccccc1C1CC(c2ccc(Br)s2)Nc2ncnn21 (stereo not given)")
"T"
>>> group_label("COc1ccc(OC(C)C(=O)Nc2cccnc2)cc1 (stereo not given)")
"F"
>>> group_label("CC(C)CNC(=O)C(=O)NCc1ccccc1")
"F"

====

# assay method text: qHTS for Inhibitors of human tyrosyl-DNA phosphodiesterase 1 (TDP1): qHTS in cells in absence of CPT; note: nearly all actives have a fitted effect of over 55% in size; note: potency is the fitted concentration of half-maximal effect
# condition details: DT40 Tdp1-/- hTDP1 cells, no CPT, ATP luminescence, 48 h
About 64,000 (15%) of roughly 420,000 compounds were called active. Another 27% or so got no clear call; they are omitted. The list is a sample of the results.
parameter measured: Potency

>>> result("Nc1ccccc1SC(C[N+](=O)[O-])c1ccccc1 (configuration not stated)")
"2.31 µM (active)"
>>> result("CN(C)CCOc1cccc(Br)c1")
"inactive"
>>> result("CC(=O)c1c(C)n(-c2ccc(N(C)C)cc2)c2ccc(OCC(N)=O)cc12")
"23.1 µM (active)"
>>> result("COc1cccc(N=c2oc3c(C)ncc(CO)c3cc2C(N)=O)c1")
"inactive"
>>> result("CC1(C(=O)NCc2ccccc2)CSCC(=O)N1CCCn1ccnc1 (configuration not stated)")
"inactive"
>>> result("CC(C)(C)OC(=O)N/N=C/c1cn(-c2ccccc2)nc1-c1cccnc1")
"inactive"
>>> result("CN1CCN(c2ccncc2S(=O)(=O)N2CCCC2)CC1")
"inactive"
>>> result("CCO/C=C1\\C(=O)N(c2ccc(OCC)cc2)C(=O)c2ccccc21")
"inactive"
>>> result("CNC[C@H]1Oc2c(NC(=O)C3CCCCC3)cccc2C(=O)N([C@H](C)CO)C[C@@H]1C")
"inactive"
>>> result("CSc1n[nH]c(-c2ccco2)n1")
"inactive"
>>> result("CCc1ccc(OC(C)C(=O)Nc2ccc(S(=O)(=O)Nc3cc(C)on3)cc2)cc1 (configuration not stated)")
"inactive"
>>> result("CN1CCN(c2ncc3c(n2)CC(c2ccccc2F)CC3=O)CC1 (configuration not stated)")
"18.4 µM (active)"

====

# assay method text: qHTS for Inhibitors of human tyrosyl-DNA phosphodiesterase 1 (TDP1): qHTS in cells in absence of CPT; note: nearly all actives have a fitted effect of over 55% in size; note: potency is the fitted concentration of half-maximal effect
# condition details: DT40 Tdp1-/- hTDP1 cells, no CPT, ATP luminescence, 48 h
Among all 420,000 compounds or so, about 64,000 (15%) were called active. Another 27% or so got no clear call; they are omitted. A selection follows.
parameter measured: Potency

>>> result("Cc1ccc(N2CCN(/N=C/c3cccs3)CC2)cc1")
"inactive"
>>> result("Cc1ccc(C(=O)CC2(O)C(=O)N(CCc3ccccc3)c3ccc(Br)cc32)cc1 (stereo not drawn)")
"16.4 µM (active)"
>>> result("C=CCNC(=O)COC(=O)CNC(=O)c1cc(Cl)cc([N+](=O)[O-])c1")
"inactive"
>>> result("CS(=O)(=O)c1ccc(C(=O)NNC(=O)c2cccs2)cc1")
"inactive"
>>> result("CCCN1C(=O)C(O)(CC(=O)c2ccc(CC)cc2)c2cc(Br)ccc21 (stereo not drawn)")
"6.51 µM (active)"
>>> result("CCOC(=O)c1cnc(-c2ccccc2)nc1Oc1ccc(C)cc1")
"inactive"
>>> result("COCCNC(=O)C1CCN(S(=O)(=O)c2ccc3c(c2)OCCO3)CC1")
"inactive"
>>> result("CCOC(=O)CSc1nnc(CNC(=O)c2cccs2)n1-c1ccccc1")
"inactive"

====

# assay method text: qHTS for Inhibitors of human tyrosyl-DNA phosphodiesterase 1 (TDP1): qHTS in cells in absence of CPT; note: nearly all actives have a fitted effect of over 55% in size
# condition details: DT40 Tdp1-/- hTDP1 cells, no CPT, ATP luminescence, 48 h
Screen size: about 420,000 compounds; about 64,000 (15%) were called active. Inconclusive results (about 27%) are left out. Calls come from the whole dose curve; as a rule, active = well fitted inhibition curve with a large enough effect; inconclusive = small, poorly fitted or top-dose-only effect; inactive = flat fitted curve, though single readings scatter. These entries were drawn from the full list.
Classes used: yes (1) = active, no (0) = inactive

>>> group_label("CCn1c(SCC(=O)NNC(=O)c2ccc(OC)cc2)nnc1C(C)C")
"yes (1)"
>>> group_label("O=C(NCC(=O)N(c1ccccc1)C(C(=O)NCC1CCCO1)c1ccccc1)c1cccs1 (configuration not stated)")
"no (0)"
>>> group_label("Cc1ccc(NC(=S)NC2CCCC2)cc1")
"no (0)"
>>> group_label("CCc1ccc(CNC(=O)C2CCN(c3nnc(C)c4c(C)n(-c5ccc(C)cc5)nc34)CC2)cc1")
"yes (1)"
>>> group_label("NC(=O)c1ccccc1N=Cc1ccc2ccccc2c1")
"yes (1)"
>>> group_label("CC(=O)c1c(C)n(-c2ccc(C)cc2)c2ccc(O)cc12")
"no (0)"
>>> group_label("Cc1ccc(N(C(=O)Cc2cccs2)C(C(=O)NCC2CCCO2)c2ccncc2)cc1 (configuration not stated)")
"no (0)"
>>> group_label("Cc1nnc(N2CCCC(C(=O)NCCN(C)C)C2)c2nn(-c3ccccc3)c(C)c12 (configuration not stated)")
"no (0)"
>>> group_label("COc1cc(C(=O)Nn2c(O)c(C3=c4ccccc4=NC3=O)sc2=S)ccc1O")
"no (0)"
>>> group_label("CCCCCNC(=O)Cc1ccc(OC)cc1")
"no (0)"
>>> group_label("Cn1c2ccccc2c2c(C(=O)N3CCN(c4ccc(F)cc4)CC3)cn(C3CCCC3)c(=O)c21")
"yes (1)"
>>> group_label("Cc1ccc(N(C(=O)c2snc(C(N)=O)c2N)C(C(=O)NCC2CCCO2)c2c[nH]c3ccccc23)cc1 (configuration not stated)")
"yes (1)"

====

# assay method text: qHTS for Inhibitors of human tyrosyl-DNA phosphodiesterase 1 (TDP1): qHTS in cells in absence of CPT; note: nearly all actives have a fitted effect of over 55% in size
# condition details: DT40 Tdp1-/- hTDP1 cells, no CPT, ATP luminescence, 48 h
Hit rate of the full screen: of about 420,000 compounds, about 64,000 (15%) were called active. Roughly 27% stayed inconclusive and do not appear here. Calls come from the whole dose curve; as a rule, active = well fitted inhibition curve with a large enough effect; inconclusive = small, poorly fitted or top-dose-only effect; inactive = flat fitted curve, though single readings scatter. These entries were drawn from the full list.
Classes used: active, inactive

>>> group_label("Cc1cccc(-c2ncc(CN3CCC(CO)(CCCc4ccccc4)CC3)cn2)c1")
"active"
>>> group_label("Cn1c(=O)c2cc(NC(=O)NCCc3cccs3)ccc2n1Cc1cccc(C(F)(F)F)c1")
"active"
>>> group_label("COc1ccc(OCC(=O)N2CCOCC2)cc1")
"inactive"
>>> group_label("COc1ccc(/C=C2/CCCc3ccccc3C2=O)cc1")
"active"
>>> group_label("CCCSc1nc2[nH]ncc2c(=O)[nH]1")
"inactive"
>>> group_label("CC(NC(=O)CCc1cn(Cc2ccccc2Cl)c2ccccc12)c1ccccc1 (centres undefined)")
"active"
>>> group_label("COc1ccc(/C=C2\\N=C3CCCN3C2=O)cc1")
"inactive"
>>> group_label("Cc1cc(O)ccc1-c1cnc2ccccc2n1")
"inactive"
>>> group_label("CC(=O)Oc1ccc(-c2nc3c(C)cccc3c(=O)o2)cc1")
"inactive"
>>> group_label("CSc1n[nH]c(=S)n1N")
"inactive"
>>> group_label("COc1cccc(CC2(CO)CCN(Cc3cnc(-c4cccc(C)c4)nc3)CC2)c1")
"active"
>>> group_label("CCOc1ccc(S(=O)(=O)n2ccnc2)c2ccccc12")
"inactive"
>>> group_label("O=C(Nc1ccccc1)O/N=C1/CCCc2occc21")
"inactive"
>>> group_label("C/C(=C/c1ccccc1)C(=O)N1CCN(c2ccccc2)CC1")
"inactive"
